Target: CYP2A6 (Homo sapiens, UniProt P11509)
Assay: Inhibition of CYP2A6 in human liver microsomes assessed as enzyme-mediated metabolite formation at 0.3 uM using coumarin as substrate preincubated for 20 mins followed by substrate addition measured after 30 mins in presence of NADPH by LC-MS/MS analysis relative to control
Format: ADME
Set-up: scale not given: the % may be the effect or the level left
Conditions: probe coumarin, read-out: Activity
property measured: activity at 0.5 h, 0.3 µM (%)
Give bare numbers, in %.

Enquiry: Item CCCCCCCC(=O)CCc1ccc(O)c(OC)c1 with CYP2A6 (Homo sapiens, UniProt P11509) - activity at 0.5 h, 0.3 µM?
Return: 103

====

Target: CYP3A4 (Homo sapiens, UniProt P08684)
Experiment: Inhibition of CYP3A4 in human liver microsomes assessed as enzyme-mediated metabolite formation at 0.1 uM using midazolam as substrate preincubated for 20 mins followed by substrate addition measured after 30 mins in presence of NADPH by LC-MS/MS analysis relative to control
Assay type: ADME
Set-up: scale not given: the % may be the effect or the level left
Details: probe midazolam, read-out: Activity
property measured: activity at 0.5 h, 0.1 µM (%)
Give bare numbers, in %.

Enquiry: Item CCCCCCCC(=O)CCc1ccc(O)c(OC)c1 with CYP3A4 (Homo sapiens, UniProt P08684) - activity at 0.5 h, 0.1 µM?
Return: 96.3

====

Biological target: CYP2B6 (Homo sapiens)
Sequence (P20813 whole entry): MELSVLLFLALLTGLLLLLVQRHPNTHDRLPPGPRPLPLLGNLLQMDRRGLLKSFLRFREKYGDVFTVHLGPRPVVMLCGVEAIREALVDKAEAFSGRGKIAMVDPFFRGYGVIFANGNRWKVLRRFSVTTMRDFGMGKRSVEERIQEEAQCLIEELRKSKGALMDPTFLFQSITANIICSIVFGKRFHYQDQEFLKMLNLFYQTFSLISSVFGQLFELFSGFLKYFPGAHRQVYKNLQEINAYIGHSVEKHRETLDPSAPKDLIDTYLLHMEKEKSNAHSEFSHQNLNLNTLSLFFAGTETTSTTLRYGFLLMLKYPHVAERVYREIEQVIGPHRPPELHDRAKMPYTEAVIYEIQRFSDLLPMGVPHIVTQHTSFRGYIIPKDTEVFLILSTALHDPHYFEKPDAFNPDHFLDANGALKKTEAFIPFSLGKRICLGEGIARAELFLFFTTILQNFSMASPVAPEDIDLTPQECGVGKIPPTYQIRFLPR
Experiment: Inhibition of CYP2B6 in human liver microsomes assessed as enzyme-mediated metabolite formation at 1 uM using bupropion as substrate preincubated for 20 mins followed by substrate addition measured after 30 mins in presence of NADPH by LC-MS/MS analysis relative to control
Assay type: ADME
Design: scale not given: the % may be the effect or the level left
Conditions: probe bupropion, read-out: Activity
property measured: activity at 0.5 h, 1 µM (%)
One number for each entry, in %.

Enquiry: Would you mind telling me what activity at 0.5 h, 1 µM value was observed for CCCCCCCC(=O)CCc1ccc(O)c(OC)c1 ?
Return: 79

====

Molecular target: CYP1A2 (Homo sapiens, UniProt P05177)
Assay: Inhibition of CYP1A2 in human liver microsomes assessed as enzyme-mediated metabolite formation at 0.3 uM using phenacetin as substrate preincubated for 20 mins followed by substrate addition measured after 30 mins in presence of NADPH by LC-MS/MS analysis relative to control
Assay type: ADME
Parameters: scale not given: the % may be the effect or the level left
Conditions: probe phenacetin, read-out: Activity
property measured: activity at 0.5 h, 0.3 µM
Quote the value and follow it with the unit of measurement.

Enquiry: Would you mind telling me what activity at 0.5 h, 0.3 µM value was observed for CCCCCCCC(=O)CCc1ccc(O)c(OC)c1 ?
Return: 96.4%

====

Target: UniProt:P10635
Assay: Inhibition of CYP2D6 in human liver microsomes assessed as enzyme-mediated metabolite formation at 0.3 uM using dextromethorphan as substrate incubated for 5 mins followed by NADPH addition measured after 30 mins by LC-MS/MS analysis relative to control
Format: ADME
Parameters: scale not given: the % may be the effect or the level left
Conditions: probe dextromethorphan, read-out: Activity
property measured: activity at 0.5 h, 0.3 µM (%)
Give bare numbers, in %.

Enquiry: Would you mind telling me what activity at 0.5 h, 0.3 µM value was observed for CCCCCCCC(=O)CCc1ccc(O)c(OC)c1 ?
Return: 76

====

Target: Cytochrome P450 2C9 (Homo sapiens, UniProt P11712)
Experiment: Inhibition of CYP2C9 in human liver microsomes using tolbutamide as substrate by HPLC analysis
Assay type: ADME
property measured: IC50 (µM)
Answers are plain numbers, in µM.

Enquiry: Would you mind telling me what IC50 value was observed for CCCCC/C=C/C(=O)CCc1ccc(O)c(OC)c1 ?
Return: 29.2

====

Target: CYP1A2 (Homo sapiens)
Test: Inhibition of CYP1A2 in human liver microsomes assessed as enzyme-mediated metabolite formation at 0.3 uM using phenacetin as substrate incubated for 5 mins followed by NADPH addition measured after 30 mins by LC-MS/MS analysis relative to control
Assay type: ADME
Parameters: scale not given: the % may be the effect or the level left
Conditions: probe phenacetin, read-out: Activity
property measured: activity at 0.5 h, 0.3 µM

Enquiry: Would you mind telling me what activity at 0.5 h, 0.3 µM value was observed for CCCCCCCC(=O)CCc1ccc(O)c(OC)c1 ?
Return: 97.8%

====

Target: CYP1A2 (Homo sapiens)
Test: Inhibition of CYP1A2 in human liver microsomes assessed as enzyme-mediated metabolite formation at 30 uM using phenacetin as substrate preincubated for 20 mins followed by substrate addition measured after 30 mins in presence of NADPH by LC-MS/MS analysis relative to control
Assay type: ADME
Set-up: scale not given: the % may be the effect or the level left
Conditions: probe phenacetin, read-out: Activity
property measured: activity at 0.5 h, 30 µM (%)
One number for each entry, in %.

Enquiry: Would you mind telling me what activity at 0.5 h, 30 µM value was observed for CCCCCCCC(=O)CCc1ccc(O)c(OC)c1 ?
Return: 42.8

====

Biological target: Cytochrome P450 2B6 (Homo sapiens)
Sequence (P20813 whole entry): as above
Assay: Inhibition of human CYP2B6 using bupropion as substrate incubated for 5 mins followed by NADPH addition measured after 30 mins by LC-MS/MS analysis
Format: ADME
property measured: IC50 (µM)
Give bare numbers, in µM.

Enquiry: Would you mind telling me what IC50 value was observed for CCCCCCCC(=O)CCc1ccc(O)c(OC)c1 ?
Return: 6.2

====

Target: CYP1A2 (Homo sapiens, UniProt P05177)
Sequence (P05177 whole entry): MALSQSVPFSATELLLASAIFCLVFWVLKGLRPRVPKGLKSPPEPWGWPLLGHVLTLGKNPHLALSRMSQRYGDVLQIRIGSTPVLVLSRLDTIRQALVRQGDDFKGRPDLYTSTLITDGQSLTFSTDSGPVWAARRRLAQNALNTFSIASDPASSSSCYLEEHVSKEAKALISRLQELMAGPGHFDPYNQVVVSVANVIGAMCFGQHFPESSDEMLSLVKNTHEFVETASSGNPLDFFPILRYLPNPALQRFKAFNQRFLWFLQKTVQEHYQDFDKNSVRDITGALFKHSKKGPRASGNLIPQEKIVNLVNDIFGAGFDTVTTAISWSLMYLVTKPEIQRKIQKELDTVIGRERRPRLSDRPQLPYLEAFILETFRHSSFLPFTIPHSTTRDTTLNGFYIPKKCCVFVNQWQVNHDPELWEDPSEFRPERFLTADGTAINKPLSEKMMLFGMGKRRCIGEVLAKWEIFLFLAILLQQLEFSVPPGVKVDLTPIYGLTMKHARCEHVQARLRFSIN
Experiment: Inhibition of CYP1A2 in human liver microsomes assessed as enzyme-mediated metabolite formation at 0.1 uM using phenacetin as substrate incubated for 5 mins followed by NADPH addition measured after 30 mins by LC-MS/MS analysis relative to control
Assay type: ADME
Parameters: scale not given: the % may be the effect or the level left
Settings: probe phenacetin, read-out: Activity
property measured: activity at 0.5 h, 0.1 µM (%)
One number for each entry, in %.

Enquiry: Would you mind telling me what activity at 0.5 h, 0.1 µM value was observed for CCCCCCCC(=O)CCc1ccc(O)c(OC)c1 ?
Return: 100

====

Target: CYP3A4 (Homo sapiens)
Assay: Inhibition of CYP3A4 in human liver microsomes assessed as enzyme-mediated metabolite formation at 1 uM using midazolam as substrate preincubated for 20 mins followed by substrate addition measured after 30 mins in presence of NADPH by LC-MS/MS analysis relative to control
Assay type: ADME
Design: scale not given: the % may be the effect or the level left
Details: probe midazolam, read-out: Activity
property measured: activity at 0.5 h, 1 µM (%)
One number for each entry, in %.

Enquiry: Would you mind telling me what activity at 0.5 h, 1 µM value was observed for CCCCCCCC(=O)CCc1ccc(O)c(OC)c1 ?
Return: 91.5

====

Biological target: CYP2C8 (Homo sapiens, UniProt P10632)
Sequence (P10632 whole entry): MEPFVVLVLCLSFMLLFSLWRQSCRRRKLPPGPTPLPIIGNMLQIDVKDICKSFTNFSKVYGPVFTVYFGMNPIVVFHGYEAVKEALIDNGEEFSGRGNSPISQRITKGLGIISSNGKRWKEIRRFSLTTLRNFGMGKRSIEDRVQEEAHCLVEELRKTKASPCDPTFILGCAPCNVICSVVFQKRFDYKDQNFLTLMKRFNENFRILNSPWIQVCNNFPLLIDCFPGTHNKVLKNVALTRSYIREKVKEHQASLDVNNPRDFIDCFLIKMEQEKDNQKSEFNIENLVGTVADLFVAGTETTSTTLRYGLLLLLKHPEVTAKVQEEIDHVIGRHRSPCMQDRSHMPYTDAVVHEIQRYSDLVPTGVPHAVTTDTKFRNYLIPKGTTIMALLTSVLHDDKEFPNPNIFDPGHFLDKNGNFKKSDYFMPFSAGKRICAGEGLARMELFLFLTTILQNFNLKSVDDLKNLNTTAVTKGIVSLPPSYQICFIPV
Test: Inhibition of CYP2C8 in human liver microsomes assessed as enzyme-mediated metabolite formation at 0.3 uM using paclitaxel as substrate preincubated for 20 mins followed by substrate addition measured after 30 mins in presence of NADPH by LC-MS/MS analysis relative to control
Assay type: ADME
Design: scale not given: the % may be the effect or the level left
Details: probe paclitaxel, read-out: Activity
property measured: activity at 0.5 h, 0.3 µM (%)
Answers are plain numbers, in %.

Enquiry: Would you mind telling me what activity at 0.5 h, 0.3 µM value was observed for CCCCCCCC(=O)CCc1ccc(O)c(OC)c1 ?
Return: 77.2

====

Biological target: CYP2C9 (Homo sapiens)
Sequence (P11712 whole entry): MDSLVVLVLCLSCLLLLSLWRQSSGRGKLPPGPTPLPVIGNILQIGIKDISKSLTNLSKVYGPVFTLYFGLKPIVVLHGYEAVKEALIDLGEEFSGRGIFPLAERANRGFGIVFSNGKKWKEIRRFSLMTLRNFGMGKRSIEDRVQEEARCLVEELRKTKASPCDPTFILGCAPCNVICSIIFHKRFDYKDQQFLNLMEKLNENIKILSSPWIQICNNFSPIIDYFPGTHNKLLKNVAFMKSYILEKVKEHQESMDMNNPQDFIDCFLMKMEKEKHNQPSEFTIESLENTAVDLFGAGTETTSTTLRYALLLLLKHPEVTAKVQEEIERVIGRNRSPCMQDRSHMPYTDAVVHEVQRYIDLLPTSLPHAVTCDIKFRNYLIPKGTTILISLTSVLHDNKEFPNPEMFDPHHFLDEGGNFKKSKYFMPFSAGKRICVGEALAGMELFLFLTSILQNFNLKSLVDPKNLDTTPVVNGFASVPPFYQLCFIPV
Assay: Inhibition of CYP2C9 in human liver microsomes assessed as enzyme-mediated metabolite formation at 10 uM using diclofenac as substrate incubated for 5 mins followed by NADPH addition measured after 30 mins by LC-MS/MS analysis relative to control
Type: ADME
Set-up: scale not given: the % may be the effect or the level left
Conditions: probe diclofenac, read-out: Activity
property measured: activity at 0.5 h, 10 µM
Quote the value and follow it with the unit of measurement.

Enquiry: Would you mind telling me what activity at 0.5 h, 10 µM value was observed for CCCCCCCC(=O)CCc1ccc(O)c(OC)c1 ?
Return: 52.3%
